All values here come from ChEMBL document CHEMBL1201862.

tested on: SNB-78; experiment: NCI tumour cell line growth inhibition, 48 h
Calls of active or inactive are those of the source. Cut-off read from the data, not from the text of the source: active = GI50 up to about 1.1 µM and inactive = higher.
readoutName: GI50

// known answers, use as guide
# query: GI50 of entry "Cc1ccc(N2C(=O)/C(=C3\Sc4c(nc(C)[nH]c4=O)N3c3ccccc3)SC2=S)cc1"
39 µM (inactive)

# query: GI50 of entry "O=C1CCC(=O)N1CNc1cccc(NCN2C(=O)CCC2=O)c1"
> 100 µM (inactive)

# query: GI50 of entry CCOC(=O)N1CCc2cc(OC)c(OC)c3c2C1CC3=O (stereo not given)
> 100 µM (inactive)

# query: GI50 of entry "COc1ccc(-c2[nH]c3ccccc3c2CCNS(=O)(=O)c2ccc(C)cc2)cc1"
> 10 µM (inactive)

More entries:
# query: GI50 of entry "CCCCc1ccc(-n2c3nc(=O)n(C)c(=O)c-3nc3ccccc32)cc1"
16.3 µM (inactive)

* * *

tested on: SNB-78; assay: NCI tumour cell line growth inhibition, 48 h
Activity calls are given as the source filed them. Rule as the data show it: active = GI50 up to about 1.1 µM and inactive = higher.
readoutName: GI50

// known answers, use as guide
Lookup: GI50 / SNB-78 / "C=CCn1c(=S)sc2c(O)ncnc21"
> 100 µM (inactive)

Lookup: GI50 / SNB-78 / CC(C(=O)C(C)O[Si](c1ccccc1)(c1ccccc1)C(C)(C)C)=P(c1ccccc1)(c1ccccc1)c1ccccc1 (stereo not given)
3.48 µM (inactive)

Lookup: GI50 / SNB-78 / "N=S(c1ccccc1[N+](=O)[O-])c1ccccc1[N+](=O)[O-]"
2.52 µM (inactive)

Lookup: GI50 / SNB-78 / CC1(C)c2ccccc2C(C)(C)C(C(=O)Nc2ccccc2)C1C(=O)O (stereo not given)
> 100 µM (inactive)

Lookup: GI50 / SNB-78 / "COc1cc(/C=C/C(=O)Oc2ccc(NC(C)=O)cc2)ccc1C(=O)OCc1ccccc1"
32.6 µM (inactive)

More entries:
Lookup: GI50 / SNB-78 / CCCCCCC/C=C1\CCC(CN(C)C)C1=O (stereo not given)
16.4 µM (inactive)

Lookup: GI50 / SNB-78 / Cc1cccc2c1Sc1ccccc1C2NC(=O)CN(C)C (stereo not given)
> 100 µM (inactive)

Lookup: GI50 / SNB-78 / "COc1ccc(NC(=O)CC(=O)n2nc(C)c(/N=N/c3ccccc3C(=O)O)c2C)cc1"
29.3 µM (inactive)

Lookup: GI50 / SNB-78 / CCCOC(=O)CCC(NC(=O)c1ccc(Nc2nc3ccccc3nc2-c2cccs2)cc1)C(=O)OCCC (stereo not given)
> 100 µM (inactive)

Lookup: GI50 / SNB-78 / CC1(C)CC23C4COC(=O)C2CCC1C3CC4=O (stereo not given)
15 µM (inactive)

* * *

test system: EKVX; assay: NCI tumour cell line growth inhibition, 48 h
Activity calls are given as the source filed them. Cut-off read from the data, not from the text of the source: active = GI50 up to about 1.1 µM and inactive = higher.
readoutName: GI50

// known answers, use as guide
# query: GI50 of entry C[N+]1([O-])CCC(O)(C2CC2)CC1 (stereo not given)
> 100 µM (inactive)

# query: GI50 of entry COCOCC[C@@H]1CC=CC(NC(=O)OCc2ccccc2)C1/C=C/C(=O)CCC1OCCO1 (stereo not given in full)
50.1 µM (inactive)

# query: GI50 of entry CCOP(=O)(CCCC(O)CNc1nc(N)nc(Cl)c1/N=N/c1ccc(Cl)cc1)OCC (stereo not given)
3.63 µM (inactive)

# query: GI50 of entry "O=C(NNc1ccccc1)c1ccc(Cl)c(Cl)c1"
4.39 µM (inactive)

Now for another entry.
# query: GI50 of entry "COc1cccc2c(SCC(=O)Nc3ccccc3-c3ccccc3NC(=O)CSc3c4ccccc4nc4c(OC)cccc34)c3ccccc3nc12"
21.7 µM (inactive)
